Taken from paper PMC8162404.

- target: S100B (Homo sapiens, UniProt P04271)
- Construct: made in house; host or cells: Escherichia coli BL21(DE3)
- Sequence (P04271 1-92): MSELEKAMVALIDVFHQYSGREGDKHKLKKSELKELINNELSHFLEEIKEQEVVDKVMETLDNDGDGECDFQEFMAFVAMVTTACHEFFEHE
- method.description: Competition pull-down with native ligand RSK1 (689–735)
- Format: binding
- test.parameters: H14 library; competitor peptide 200 µM; read-out: Surface mapping KD (apparent), competition
readout: pKd
Would you please state pKd, meaning minus log10 of the concentration in mol/L, as a bare number?

# value of pKd, S100B (Homo sapiens, UniProt P04271), item CSCC[C@@H](CC(=O)N[C@H]1CCCC[C@@H]1C(N)=O)NC(=O)[C@H]1CCCC[C@@H]1NC(=O)[C@H]1CCCC[C@@H]1NC(=O)C[C@H](C)NC(=O)[C@H]1CCCC[C@@H]1N = 3.44

S100B (Homo sapiens, UniProt P04271) assay, compound C[C@@H](CC(=O)N[C@H]1CCCC[C@@H]1C(=O)N[C@H]1CCCC[C@@H]1C(=O)N[C@H](CC(=O)N[C@H]1CCCC[C@@H]1C(N)=O)Cc1ccc(O)cc1)NC(=O)[C@H]1CCCC[C@@H]1N , recorded pKd = 3.52

Sample NC(=O)C[C@@H](CC(=O)N[C@H]1CCCC[C@@H]1C(N)=O)NC(=O)[C@H]1CCCC[C@@H]1NC(=O)[C@H]1CCCC[C@@H]1NC(=O)C[C@H](Cc1ccc(O)cc1)NC(=O)[C@H]1CCCC[C@@H]1N , system: S100B (Homo sapiens, UniProt P04271). Its pKd is 3.32

Considering CC(C)[C@@H](CC(=O)N[C@H]1CCCC[C@@H]1C(=O)N[C@H]1CCCC[C@@H]1C(=O)N[C@@H](CCCCN)CC(=O)N[C@H]1CCCC[C@@H]1C(N)=O)NC(=O)[C@H]1CCCC[C@@H]1N , its pKd with S100B (Homo sapiens, UniProt P04271) was recorded as 3.41

Tested on S100B (Homo sapiens, UniProt P04271), the item NC(=O)[C@H]1CCCC[C@@H]1NC(=O)C[C@H](Cc1ccc(O)cc1)NC(=O)[C@H]1CCCC[C@@H]1NC(=O)[C@H]1CCCC[C@@H]1NC(=O)C[C@H](Cc1c[nH]c2ccccc12)NC(=O)[C@H]1CCCC[C@@H]1N showed pKd equal to 3.98

Form field, pKd with S100B (Homo sapiens, UniProt P04271), item NC(=O)CC[C@@H](CC(=O)N[C@H]1CCCC[C@@H]1C(N)=O)NC(=O)[C@H]1CCCC[C@@H]1NC(=O)[C@H]1CCCC[C@@H]1NC(=O)C[C@H](Cc1ccccc1)NC(=O)[C@H]1CCCC[C@@H]1N : 3.31

Summary line: CC(C)C[C@@H](CC(=O)N[C@H]1CCCC[C@@H]1C(=O)N[C@H]1CCCC[C@@H]1C(=O)N[C@H](CC(=O)N[C@H]1CCCC[C@@H]1C(N)=O)Cc1c[nH]c2ccccc12)NC(=O)[C@H]1CCCC[C@@H]1N , S100B (Homo sapiens, UniProt P04271), reported pKd = 4.17

Summary: CSCC[C@@H](CC(=O)N[C@H]1CCCC[C@@H]1C(N)=O)NC(=O)[C@H]1CCCC[C@@H]1NC(=O)[C@H]1CCCC[C@@H]1NC(=O)C[C@H](CCC(=O)O)NC(=O)[C@H]1CCCC[C@@H]1N , S100B (Homo sapiens, UniProt P04271), pKd = 3.85

Tested on S100B (Homo sapiens, UniProt P04271): CSCC[C@@H](CC(=O)N[C@H]1CCCC[C@@H]1C(=O)N[C@H]1CCCC[C@@H]1C(=O)N[C@H](CC(=O)N[C@H]1CCCC[C@@H]1C(N)=O)Cc1ccccc1)NC(=O)[C@H]1CCCC[C@@H]1N . Observed pKd: 3.50
